tested on: HaCat; assay: Cytotoxic Profiling of Annotated Libraries Using Quantitative High-Throughput Screening (AID 1296008); settings: Five cell lines viability, CellTiter-Glo ATP luminescence, 48-72 h; stronger effect = lower value; note: % is set by controls: 0 for no effect and ±100 for the full control effect; nearly all actives have a fitted effect of over 60% in size
Records with an inconclusive call do not appear.
MEASUREMENT_NAME: max response (%)
Report the value in % with no unit label.

Solved entries:
CC1(C)CC[C@]2(C(=O)O[C@@H]3O[C@H](CO)[C@@H](O)[C@H](O)[C@H]3O)CC[C@]3(C)C(=CCC4[C@@]5(C)C[C@@H](O)[C@H](O)[C@](C)(C(=O)O)C5CC[C@]43C)C2C1O (some centres not stated)    1.77
Cc1onc(C(=O)N2CCN(C(c3ccc(Cl)cc3)c3ccc(Cl)cc3)CC2)c1[N+](=O)[O-]    0.662
CC[C@]1(O)CC2CN(CCc3c([nH]c4ccccc34)[C@@](C(=O)OC)(c3cc4c(cc3OC)N(C)[C@H]3[C@@](O)(C(=O)OC)[C@H](OC(C)=O)[C@]5(CC)C=CCN6CC[C@]43[C@@H]65)C2)C1 (some centres not stated)    4.47
C=C1CC[C@@H]2[C@](C)(CO[C@@H]3O[C@H](CO)[C@@H](O)[C@H](O)[C@H]3O)[C@H](O)CC[C@@]2(C)[C@@H]1C/C=C1/C(=O)OC[C@H]1O    3.39
C1CCC[C@H]2CCCN3CC[C@@H](CCCCCC[C@@H]4CCCN5CC[C@@H](CC1)O[C@@H]45)O[C@@H]23    -0.73
C=C1CC2C(C)(CCC(=O)O)C(C(C)(C)O)CCC2(C)C2C(=O)OC(C)(C(=O)OC)C(=O)C12C (configuration not stated)    4.3

Would you kindly look at the next entry?
For record CC1CCC2C(C)(C)[C@@H](O)CC[C@]2(C)C12Cc1c(O)cc3c(c1O2)CN(C(CCC(=O)O)C(=O)O)C3=O (some centres not stated) the listed max response is 3.85

---

system: Tov112D; assay: Primary qHTS to identify gynecologic anti-cancer compounds using libraries of approved drugs and bioactive compounds (AID 1345084); settings: Gynecologic cancer cell panel viability, ATPlite luminescence, 48 h; series mostly up to 57.5 µM; note: nearly all actives have a fitted effect of over 55% in size
Results filed as inconclusive are left out. Calls of active or inactive are those of the source. The call rests on the fitted dose curve; in most records, active means well fitted cell-killing curve with a large enough effect; inconclusive means small, poorly fitted or top-dose-only effect, or effect the other way; inactive means flat fitted curve, though single readings scatter.
Valid outcomes are listed here; reply with one: 1 = active, -1 = inactive

CC1CC[C@]2(C(=O)O)CC[C@]3(C(=O)O)C(=CCC4[C@@]5(C)CC[C@H](O[C@@H]6O[C@H](CO)[C@@H](O)[C@H](O)[C@H]6O)C(C)(C)C5CC[C@]43C)C2C1C (some centres undefined)    -1
CC(=O)O[C@@H]1C[C@H](O)[C@@]23CO[C@H](O)[C@]1(C)C2C[C@@H](O)[C@]1(C)C3C(=O)[C@H](OC(C)=O)[C@@]2(C)[C@H](c3ccoc3)C[C@H]3O[C@]321 (some centres undefined)    1
C[C@@H]1O[C@@H](OC[C@H]2O[C@@H](Oc3cc(O)cc4c3C(=O)C(O)(Cc3ccc(O)cc3)O4)[C@H](O)[C@@H](O)[C@@H]2O)[C@H](O)[C@H](O)[C@H]1O (some centres undefined)    -1
COc1ccc(C(=O)n2c(C)c(Cc3cccc(O[C@@H](C)C(=O)O)c3)c3cc(OC(F)(F)F)ccc32)cc1    -1
CCCC(=O)O[C@@H]1[C@@H]2[C@@H](OC(C)=O)[C@]3(C)C(=O)[C@H]4[C@@H](OC(C)=O)C(C)(C)C[C@H]4[C@]3(C)C(=O)[C@@]2(OC(C)=O)C[C@@H]1C    -1

Hi team, can someone confirm the assay call for C=CC(C)(C)C12C=C(OC)C(=O)N3C(C(C)C)C(=O)NC31N(OC)c1ccccc12 (centres undefined) ?
-1

Hi team, can someone confirm the assay call for `COc1ccc(Cl)c(Nc2nc3ccccc3nc2NS(=O)(=O)c2cccc(NC(=O)C(C)(C)N)c2)c1` ?
-1

Hi team, can someone confirm the assay call for `CCNC(=O)Nc1ncc(-c2cc(-c3c(C)cc(OC)cc3C)nc(-c3cnccn3)n2)s1` ?
-1

Hi team, can someone confirm the assay call for CC1=C(C(=O)O)/C(=C\CO[C@@H]2O[C@H](CO)[C@@H](O)[C@H](O)[C@H]2O)C(OC(=O)/C=C/c2ccc(O)cc2)C1 (some centres undefined) ?
-1

Hi team, can someone confirm the assay call for `C=C(C(=O)O)[C@H]1C[C@]2(C)[C@@H](O)CC[C@]23O[C@H]1C[C@@H]3C` ?
-1

Hi team, can someone confirm the assay call for COC(=O)C1(C)CCC2(C(=O)O)CCC3(C)C(=CCC4C5(C)CC(O)C(OC6OCC(O)C(O)C6O)C(C)(CO)C5CCC43C)C2C1 (centres undefined) ?
-1

Hi team, can someone confirm the assay call for CC1=C(CCC(C)CC(=O)O)[C@@]2(C)CCCC(C)(C)C2CC1=O (some centres undefined) ?
-1

Hi team, can someone confirm the assay call for C/C(=C\CC[C@@H](C)[C@H]1CC(O)[C@@]2(C)C3CC[C@H]4C(C)(C)[C@@H](OC5OCC(O)C(O)C5OC5OC(CO)C(O)C(O)C5O)CC[C@@]45C[C@@]35CC(O)[C@]12C)C(=O)O (some centres undefined) ?
-1

Hi team, can someone confirm the assay call for `CC[C@@](C)(Nc1ccnc(-c2c[nH]c3ncccc23)n1)C(=O)NCC(F)(F)F` ?
-1

---

assay: Primary qHTS for inhibitors of nuclear receptor binding SET domain protein 2 (NSD2) in an RCH-ACV wild type WT cells (2C) (AID 1645877); details: RCH-ACV (leukaemia line) NSD2 WT (2C) viability, CellTiter-Glo, 72 h; series mostly up to 44.9 µM; note: potency is the fitted concentration of half-maximal effect; nearly all actives have a fitted effect of over 70% in size
Inconclusive results are not listed. The source made the active and inactive calls. Calls come from the whole dose curve; as a rule, active = well fitted inhibition curve with a large enough effect; inconclusive = small, poorly fitted or top-dose-only effect; inactive = no such curve, though single readings can be large or run the other way.
MEASUREMENT_NAME: Potency

C/C=C/c1cc(OC)c2c(c1)[C@@H](C)[C@@H](c1ccc(O)c(OC)c1)O2    14200 nM (active)
CN1CCN(Cc2ccc(-c3cnc4[nH]cc(-c5ccc6[nH]ccc6c5)c4c3)cc2)CC1    1450 nM (active)
C=C(C)C(=O)OC1CC2(C)OC(=CC2=O)C(=C)CC2OC(=O)C(COC)C12 (stereo not given)    1790 nM (active)
COc1cc2c(cc1O)CC[C@H]1[C@@H]2CC[C@]2(C)[C@H](O)CC[C@@H]12    916 nM (active)

Would you kindly look at the next entry?
For record `C=CC(=O)N1CCN(C(=O)CNc2cc(I)c(Cl)cc2O)CC1` the listed Potency is 5150 nM (active)

---

system: Zika virus NS2B-NS3 protease (unlinked complex); test: Primary screen GU Rhodamine qHTS for Zika virus inhibitors: Unlinked NS2B-NS3 protease assay (AID 1347159); settings: Recombinant ZIKV NS2B-NS3 protease, Rhodamine110 substrate fluorescence; series mostly up to 107 µM; note: nearly all actives have a fitted effect of over 60% in size; note: potency is the fitted concentration of half-maximal effect
Records with an inconclusive call do not appear. The source made the active and inactive calls. Calls follow the shape of the dose curve; as a rule, active = well fitted inhibition curve with a large enough effect; inconclusive = small, poorly fitted or top-dose-only effect; inactive = no such curve, though single readings can be large or run the other way.
MEASUREMENT_NAME: Potency

Solved entries:
C[C@H]1CC[C@@]2(OC1)O[C@H]1CC3C4CC[C@H]5C[C@@H](O)[C@H](O)C[C@]5(C)C4=CC(=O)[C@]3(C)[C@H]1[C@@H]2C (stereo partly specified)    inactive
CCS(=O)(=O)N1CCN(c2ccc(Nc3ncc(C(N)=O)c(NC4CC4)n3)cc2)CC1    inactive
C/C=C/C=C/C=C/C(=O)OC1C=C(C=O)C(O)(C(=O)O)C2(C)CCCC(C)(C)C12 (stereo unspecified)    8.91 µM (active)
CNC(=S)NS(=O)(=O)c1cc(CCNC(=O)c2cc(Cl)ccc2OC)ccc1OC    inactive
COC(=O)Cc1cc2c(c([N+](=O)[O-])c1)N(C(=O)CC[C@H](N)C(=O)O)CC2    inactive

Would you kindly look at the next entry?
For record CC1CCCCN1S(=O)(=O)c1ccc(N2CCCC2=O)cc1 (stereo unspecified) the listed Potency is inactive

---

The reader will find reported max response values listed item by item below.
tested on: CRL-7250; assay: Cytotoxic Profiling of Annotated Libraries Using Quantitative High-Throughput Screening (AID 1296008); settings: Five cell lines viability, CellTiter-Glo ATP luminescence, 48-72 h; stronger effect = lower value; note: % is set by controls: 0 for no effect and ±100 for the full control effect; nearly all actives have a fitted effect of over 60% in size
Records with an inconclusive call do not appear.
Report the value in % with no unit label.

COc1c2ccoc2cc2oc(CO[C@@H]3O[C@H](CO)[C@@H](O)[C@H](O)[C@H]3O)cc(=O)c12    -0.0339
CC1CCC23COC(=O)C2=CC(O)CC3C1(C)CCC1=CC(O)OC1=O (stereo not drawn)    -0.17
COc1cc2oc(-c3ccc(O)cc3O)cc2c(OC)c1CC=C(C)C    -1.99
CC(C)(C)c1cc(Br)cc([C@H](CC(=O)O)NC(=O)CNC(=O)c2cc(O)cc(NC3=NCC(O)CN3)c2)c1 (stereo partly drawn)    -6.62
CCC(=O)O[C@H]1C(C)(C)[C@H]([C@@H](O)C(=O)OC)[C@]2(C)C(=O)[C@@]1(O)[C@H]1O[C@]13C1CC(=O)O[C@@H](c4ccoc4)[C@]1(C)CCC32 (stereo partly drawn)    0.287
CC(C)(O)CC(CO)NC(=O)CC(O)CC(=O)Cc1ccccc1 (stereo not drawn)    2.18

For record C[C@@H]1O[C@@H](O[C@H]2[C@H](O)[C@@H](O[C@@H]3O[C@H](CO)[C@@H](O)[C@H](O[C@@H]4O[C@H](CO)[C@@H](O)[C@H](O)[C@H]4O)[C@H]3O)[C@H](O[C@H]3CC[C@@]4(C)C(=CC[C@@H]5C4CC[C@@]4(C)C5C[C@@H]5OC6(CC[C@@](C)(CO[C@@H]7O[C@H](CO)[C@@H](O)[C@H](O)[C@H]7O)O6)[C@@H](C)[C@@H]54)C3)O[C@@H]2CO)[C@H](O)[C@H](O)[C@H]1OC1OC(CO)C(O)C(O)C1O (stereo partly drawn) the listed max response is -6.48

For record `CSc1ccc(C(=O)N[C@@H]2CCCC[C@@H]2NC(=O)CNC(=O)c2cc(C(F)(F)F)ccc2NC(=O)NC(C)C)cc1` the listed max response is -1.98
